# Assayed Target: T1, human glucagon receptor (human, UniProt P47871 26-477)
# T1 construct: whole, on cells; also called hGCGR; hGcgR
# T1 sequence (P47871 26-477): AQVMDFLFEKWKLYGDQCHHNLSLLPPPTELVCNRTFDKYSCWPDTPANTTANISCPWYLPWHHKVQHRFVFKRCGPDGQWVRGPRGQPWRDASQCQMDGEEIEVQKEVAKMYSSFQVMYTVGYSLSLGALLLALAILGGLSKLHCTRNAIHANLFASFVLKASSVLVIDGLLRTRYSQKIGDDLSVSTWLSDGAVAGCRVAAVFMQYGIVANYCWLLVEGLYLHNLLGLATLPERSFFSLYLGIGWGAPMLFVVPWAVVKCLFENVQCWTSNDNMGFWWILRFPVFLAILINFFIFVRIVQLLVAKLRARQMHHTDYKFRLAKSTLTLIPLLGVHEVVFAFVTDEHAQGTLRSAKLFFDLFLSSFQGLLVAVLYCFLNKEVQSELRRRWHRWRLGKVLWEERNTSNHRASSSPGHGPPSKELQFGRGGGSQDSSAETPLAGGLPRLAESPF
# Assay Procedure: SPA competition vs [125I]-Gcg, hGcgR membranes
# Method: The binding buffer contains 25 mM 4-(2-hydroxyethyl)-1-piperazineethanesulfonic acid (HEPES), pH 7.4, 2.5 mM CaCl₂, 1 mM MgCh, 0.1% (w/v) bacitracin (Research Products), 0.003% (w/v) Polyoxyethylenesorbitan monolaurate (TWEEN®-20), and Roche Complete™ Protease Inhibitors without EDTA. […] Plates are sealed and mixed on a plate shaker (setting 6) for 1 minute and read with a PerkinElmer Trilux MicroBeta® scintillation counter after 12 hours of incubation/settling time at room temperature. […]
Measurement Label: pKi
As a rule, pKi stands for the negative log10 of the concentration, concentration in M.

Below are worked cases with known answers.
YXEGTXTSDKXIXLDXKAQXXFIXXLIEGGPSSGAPPPS (Aib2, αMeF(2F)6, K10(Z1), Aib11, αMeL13, Orn16, K17(Z1), Aib20, Orn21, D-Glu24, αMeY25, C-term NH2; Z1=AEEA3-(γ-Glu)-CO-(CH2)10-CH3)
6.45
YXEGTXTSDKXIXLDXKAQXEXIXXLIEGGPSSGAPPPS (Aib2, αMeF(2F)6, K10(Z1), Aib11, αMeL13, Orn16, K17(Z1), Aib20, αMeF22, D-Glu24, αMeY25, C-term NH2; Z1=AEEA3-(γ-Glu)-CO-(CH2)10-CH3)
7.19

In the following, a different binder is considered.
QUERY: Which pKi value is on record for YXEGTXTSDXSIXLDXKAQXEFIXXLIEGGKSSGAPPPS (Aib2, αMeF(2F)6, Ac5c10, αMeL13, Orn16, K17(Z1), Aib20, D-Glu24, αMeY25, K31(Z1), C-term NH2; Z1=AEEA2-(γ-Glu)-CO-(CH2)12-CO2H) ?
RESULT: 6.56
